tested_system: T1, monkey CD19 on HEK293T-monkey CD19 cells (monkey)
T1 construct: whole, on cells
method_summary: FACS on HEK293T-monkey CD19 cells
value_type: EC50 (nM)
Could you give me the number in nM? Just the number is fine.

F5.2.9 (antibody, human IgG1, V domains shown, human-murine chimeric antibody, human IgG1) VH: QVTLKESGPGILQPSQTLSLTCSFSGFSLSTFGLGVGWVRQPSGKGLEWLAHIWWDDDKYYNPALKSRVTVSKETSKNQVFFKIANVDTADSATYYCARLSRGLRRDVVYAMDHWGQGTSVTVSS VL: DIQMTQTTSSLSASLGDRVTISCRASQDISNYLNWYQQKPDGSVKLLISYVSRLQSGVPSRFRGSGSGTDYSLTISNLDQEDIATYFCQQGIAFPYTFGGGTKLDIK    2.82
F3.83.9 (antibody, human IgG1, V domains shown, human-murine chimeric antibody, human IgG1) VH: DVQLQESGPGLVKPSQSLSLTCSVTGYSITSGYYWNWIRQFPGNKLEWMGYISYDGGNNYNPSLKNRISITRDTSKNQFFLKLNSVTTEDTATYFCAREDYSNWYFDVWGTGTTVTVSS VL: DIVLTQSPASLAVSLGQRATISCRASQSVSKSSYSYMHWYQQKPGQSPKLLIKYASILKSGVPARFSGSGSGTDFTLNIHPVEEEDTATYYCQHSWEIPWTFGGGTKLEIK    1.12
F5.8.6 (antibody, human IgG1, V domains shown, human-murine chimeric antibody, human IgG1) VH: QVQLHQPGAELVMPGASVTLSCKASGYTFTSYWMHWVKQRPGQGLEWIGEIDPSDSYTTYDQKFKGKATLTVDKFSSTAYMQFSSLTSEDSAVYYCARLTGNHLDYWGQGTTLTVSS VL: DIVMTQSHKFMSSSVGDRVSITCKASQDVSPAVAWYQQKPGQSPKLLIYSTSYRNTGVPDRFTGSGSGTDFTFTISSVQAEDLAVYYCQQHYSIPLTFGAGTKLELK    5.7
F3.3.10 (antibody, human IgG1, V domains shown, human-murine chimeric antibody, human IgG1) VH: DVQLQESGPGLAKLSQSLSLTCSVTGYSITSGYYWNWIRQFPGNKLEWMGHISYDGNNNYNPSLKNRISITRDTSKNQFFLKLNSVTTEDTATYYCARENYSNYYFDYWGQGTTLTVSS VL: DIVLTQSPASLAVSLGQRATISCRASQSVSKSSYTYIHWYQQKPGQPPKLLIKYASILQSGVPARFSGSGSGTDFTLNFHPVEEEDTATYYCQHSWEIPYTFGGGTKLEIK    2.08

Please turn your attention to the following entry.
Need EC50 of F4.21.2 (antibody, human IgG1, V domains shown, human-murine chimeric antibody, human IgG1) VH: QVQLKQSGPGLVQPSQSLSITCTVSGFSLSTYGVHWVRQSPGRGLEWLGVIWIGGTTDYNAAFISRLTISKDNSRGQVFFKMDSLQANDTAIYYCARKGYYKYDGGYYYAMDYWGQGTSVTVSS VL: DIQMTQSSSYLSVSLGGRVTITCKASDHINNWLAWYQQKPGNAPWLLISGATSLETGVPSRFSGSGSGKDYTLSISSLQTEDVATYYCQQYWSTPLTFGAGTKLELK , thanks. 9.1
